growth by entry:
# Tested on: A549/ATCC NSCLC
# Experiment Description: NCI-60 one-dose screen, 48 h (100 = growth as untreated, 0 = no growth, -100 = all killed)
# Conditions: 10 µM unless noted
The panel holds about 83,000 compounds, 20% with a hit somewhere; the sample as a whole holds those more often.

# Compound, growth [%]
records = [
    ("CCOC(=O)C1=C(C)n2nc(CC#N)c(C#N)c2NC1c1ccc(Cl)cc1 (stereo not given)", 104),
    ("COC(=O)c1nc(-c2ccccc2)oc1S(=O)(=O)n1nc(C)cc1N", 94.9),
    ("O=C1NN(c2ccccc2)C(c2ccc(Cl)cc2)N2CCC[C@H]12 (stereo not given in full)", 103),
    ("O=C(N/N=C/C[C@@H]1[C@@H](/C=C/[C@@H](O)COc2cccc(Cl)c2)[C@H](O)C[C@@H]1O)c1ccncc1", 89),
    ("NC(=N\\N=C\\c1ccccc1O)/C(N)=N/N=C/c1ccccc1O", 73.6),
    ("CC[C@]12C=CCN3CC[C@@]4(c5ccc(OC)cc5N(C)[C@H]4[C@@](O)(C(=O)OC)[C@@H]1OC(=O)CCC(=O)O[C@H]1CC[C@H]4[C@@H]5CC[C@H]6CC(=O)CC[C@]6(C)[C@H]5CC[C@]14C)[C@@H]32", 13.2),
    ("O=c1[nH]c2ccccc2cc1-c1nc2ccc(Cl)cc2[nH]1", 40.1),
    ("O=C1NC(SCc2ccc(F)cc2)=N/C1=C/c1cccc(OCc2ccc(Cl)cc2)c1", 26.2),
    ("O=C(NC[C@H](O)CN1CCc2ccccc2C1)c1cc(NC2COC2)ncn1", 93.4),
    ("CN1CCN(CC#CCOC(=O)CNC(=O)[C@]23CCC(C)(C)C[C@H]2C2=CC[C@@H]4[C@@]5(C)CC[C@H](O)C(C)(C)[C@@H]5CC[C@@]4(C)[C@]2(C)CC3)CC1", 79.2),
    ("COc1cc(-c2nn(-c3ccc(Br)cc3)cc2CO)ccc1O", 78.1),
    ("CC(=O)O[C@@H]1C[C@]2(C)[C@H]3[C@H](O)C[C@@H]4C5=CC(C)(C)CC[C@]5(C)CC[C@@]4(C)[C@]3(C)CC[C@H]2C(C)(C)[C@H]1O", 94),
    ("COc1ccc(-c2cc(C(=O)N3N=C(c4ccc(N)cc4)CC3c3ccc(OC)cc3)c3cc(OC)ccc3n2)cc1 (stereo not given)", 76.6),
    ("O=C(Nc1nc(-c2ccccc2)cs1)c1cc(-c2ccc(Br)cc2)nc2ccccc12", 36.5),
    ("CCOC(=O)c1c(-c2ccc(O)cc2)c(C#N)c2c(C#N)c(N)nn2c1N", 80.7),
]
